Answer each item with its documented background-corrected fluorescence.
PROTOCOL TEXT: background-corrected fluorescence of 3'-dye-labeled ssDNA relative to brightest sequence (3'-GCGCG) (fraction); higher = brighter dye fluorescence (less quenching)
RUN CONDITIONS: dye: Cy3 (3' terminal)
Reply with the value as a number alone.

Lab book: background-corrected fluorescence of TTTTTTCATGCGCAGCATGATTTTTTTTTTTTTTTGATTC [CTTAG] noted as 0.451

Short answer for TTTTTTCAGCATCATCAGCATTTTTTTTTTTTTTTGTGGT [TGGTG] : background-corrected fluorescence was 0.659

Value of measured background-corrected fluorescence for the entry TTTTTTGCTGCTGAGCATGCTTTTTTTTTTTTTTTAACTA [ATCAA] : 0.539

// field: background-corrected fluorescence; key: TTTTTTCATCATGATGCTGCTTTTTTTTTTTTTTTGGCAA [AACGG] ; value = 0.585

Per the records, this sequence ( TTTTTGCATCATCAGCATCATTTTTTTTTTTTTTTTGGTG [GTGGT] ) has background-corrected fluorescence equal to 0.568

The measured background-corrected fluorescence associated with TTTTTGCATGCGCATCATGATTTTTTTTTTTTTTTTATGC [CGTAT] reads 0.5

---

PROTOCOL TEXT: background-corrected fluorescence of 3'-dye-labeled ssDNA relative to brightest sequence (3'-GCGCG) (fraction); higher = brighter dye fluorescence (less quenching)
RUN CONDITIONS: dye: Cy3 (3' terminal)
// label = satisfied if background-corrected fluorescence is not less than 0.5, otherwise not satisfied

Task: In plain terms: is recorded background-corrected fluorescence at least 0.5 for TTTTTGCATCATGAGCATGCTTTTTTTTTTTTTTTTGCTA [ATCGT] ?
Result: satisfied

Task: Could you verify whether the entry "TTTTTGCATGCGCAGCAGCATTTTTTTTTTTTTTTTATTT" shows background-corrected fluorescence of no less than 0.5?
Result: satisfied

Task: Tell me whether background-corrected fluorescence is at least 0.5 here: TTTTTTGCTCATCATGAGCATTTTTTTTTTTTTTTAGGCT [TCGGA]
Result: satisfied

Task: Has TTTTTTGCTGATGCTCATCATTTTTTTTTTTTTTTACAGG [GGACA] a recorded background-corrected fluorescence greater than or equal to 0.5?
Result: satisfied

Task: Reported background-corrected fluorescence at or above 0.5? TTTTTTGATGCTCATGAGCATTTTTTTTTTTTTTTCAGCT [TCGAC]
Result: satisfied

Task: Assess whether reported background-corrected fluorescence for TTTTTGCAGCAGCATGATGCTTTTTTTTTTTTTTTTTTCA [ACTTT] sits at 0.5 or higher.
Result: not satisfied

---

Can you tell me background-corrected fluorescence for the items I'm about to list?
PROTOCOL TEXT: background-corrected fluorescence of 3'-dye-labeled ssDNA relative to brightest sequence (3'-GCGCG) (fraction); higher = brighter dye fluorescence (less quenching)
RUN CONDITIONS: dye: Cy5 (3' terminal)
# print the numeric value only

Sure, the documented background-corrected fluorescence for TTTTTTCATCATGAGCAGCATTTTTTTTTTTTTTTGGCTT [TTCGG] is 0.405

Entry under test: TTTTTGCATGATGCTCATGATTTTTTTTTTTTTTTTCAGC [CGACT] . Its background-corrected fluorescence was 0.393

For reference, reported background-corrected fluorescence for TTTTTTGATCATCAGCATGATTTTTTTTTTTTTTTCGGTC [CTGGC] stands at 0.407

Consider TTTTTTGATGATCAGCATCATTTTTTTTTTTTTTTCCGTG [GTGCC] . Its measured background-corrected fluorescence is 0.435

Sample TTTTTTCATCATGATGCTGCTTTTTTTTTTTTTTTGGCAA [AACGG] ; background-corrected fluorescence observed: 0.504

For this sequence ( "TTTTTTGATCATGCTCATGATTTTTTTTTTTTTTTCGAGC" ), measured background-corrected fluorescence is 0.425

Value of background-corrected fluorescence reported for the sequence "TTTTTTGCTGATGATGATGCTTTTTTTTTTTTTTTACCCA" is 0.351

GET /value?item= TTTTTTGAGCAGCATCATGATTTTTTTTTTTTTTTCTTGC [CGTTC] &field=background-corrected fluorescence returns 0.365

background-corrected fluorescence reading for "TTTTTGCATGATCAGCATGCTTTTTTTTTTTTTTTTCGTA" : 0.457

Entry TTTTTTGATCATCAGCAGCATTTTTTTTTTTTTTTCGGTT [TTGGC] ; background-corrected fluorescence = 0.427

# background-corrected fluorescence (sequence: TTTTTTCATGATGCTCATCATTTTTTTTTTTTTTTGCAGG [GGACG] ) is 0.516

For this sequence ( TTTTTTGCTGAGCATGCTGATTTTTTTTTTTTTTTACTAC [CATCA] ), measured background-corrected fluorescence is 0.328

For this sequence ( TTTTTGCATGATGCTGCTGCTTTTTTTTTTTTTTTTCAAA [AAACT] ), measured background-corrected fluorescence is 0.462

Measured background-corrected fluorescence of TTTTTTGATCATGCGCATCATTTTTTTTTTTTTTTCGATG [GTAGC] : 0.438

Recorded background-corrected fluorescence (sequence TTTTTGCATGATGATCATGCTTTTTTTTTTTTTTTTCCGA [AGCCT] ): 0.552

For record TTTTTTGATGATCATGCTGCTTTTTTTTTTTTTTTCCGAA [AAGCC] the listed background-corrected fluorescence is 0.49

Value source: the supplement of paper PMC9428881
